Cited source for all entries: PubChem BioAssay (NCI)

test system: U251 CNS; test: NCI tumour cell line growth inhibition, 48 h

# COMPOUND, GI50
rows = [
    ("CC(C)=CCc1cc2c(cc1O)C1=C(C(=O)C3=C(NCCS3(=O)=O)C1=O)C(C=C(C)C)O2 (configuration not stated)", "4190 nM"),
    ("Cn1cc(-c2ccc3nc(-c4ccc(CC(=O)Nc5cc(C(C)(C)C)no5)cc4)cnc3c2)cn1", "29.8 nM"),
    ("CN1C(=O)C(c2c[nH]c3ccccc23)=C(c2c[nH]c3ccccc23)C1=O", "7030 nM"),
    ("CCCCn1c(=O)[nH]c(N)c([C@@H]2c3c([nH]c(=O)n(CCCC)c3=O)Oc3ccc4ccccc4c32)c1=O", "1730 nM"),
    ("O=C1C=C(Nc2ccccc2)c2ccccc2C1=O", "1800 nM"),
    ("CC(C)=CCC/C(C)=C/CC/C(C)=C/CSC[C@H](NC(=O)CCCCCN1CCN(C)CC1)C(=O)NC1CCCCCC1", "1730 nM"),
    ("CC(C)(C)CC(C)(C)c1ccc(OCCO)cc1", "5.34 µg/mL"),
]
